These data points were gathered from ChEMBL document CHEMBL5523707.

# TGT: Metabotropic glutamate receptor 7 (Rattus norvegicus, UniProt P35400, S160A)
# EXPERIMENTAL DETAILS: Agonist activity at rat mGlu7 S160A mutant
pEC50: −log10 of the molar value.
MEASURED PARAMETER: pEC50

I am curious: what pEC50 value has been reported for N[C@@H](CCP(=O)(O)C(O)c1ccc(OCC(=O)O)cc1)C(=O)O (stereo partly specified) ?
< 3.52

* * *

Property: pEC50; scope: individual compounds
# TGT: Metabotropic glutamate receptor 4 (Rattus norvegicus, UniProt P31423, R258A)
# Sequence (P31423 33-912 R258A limits assumed): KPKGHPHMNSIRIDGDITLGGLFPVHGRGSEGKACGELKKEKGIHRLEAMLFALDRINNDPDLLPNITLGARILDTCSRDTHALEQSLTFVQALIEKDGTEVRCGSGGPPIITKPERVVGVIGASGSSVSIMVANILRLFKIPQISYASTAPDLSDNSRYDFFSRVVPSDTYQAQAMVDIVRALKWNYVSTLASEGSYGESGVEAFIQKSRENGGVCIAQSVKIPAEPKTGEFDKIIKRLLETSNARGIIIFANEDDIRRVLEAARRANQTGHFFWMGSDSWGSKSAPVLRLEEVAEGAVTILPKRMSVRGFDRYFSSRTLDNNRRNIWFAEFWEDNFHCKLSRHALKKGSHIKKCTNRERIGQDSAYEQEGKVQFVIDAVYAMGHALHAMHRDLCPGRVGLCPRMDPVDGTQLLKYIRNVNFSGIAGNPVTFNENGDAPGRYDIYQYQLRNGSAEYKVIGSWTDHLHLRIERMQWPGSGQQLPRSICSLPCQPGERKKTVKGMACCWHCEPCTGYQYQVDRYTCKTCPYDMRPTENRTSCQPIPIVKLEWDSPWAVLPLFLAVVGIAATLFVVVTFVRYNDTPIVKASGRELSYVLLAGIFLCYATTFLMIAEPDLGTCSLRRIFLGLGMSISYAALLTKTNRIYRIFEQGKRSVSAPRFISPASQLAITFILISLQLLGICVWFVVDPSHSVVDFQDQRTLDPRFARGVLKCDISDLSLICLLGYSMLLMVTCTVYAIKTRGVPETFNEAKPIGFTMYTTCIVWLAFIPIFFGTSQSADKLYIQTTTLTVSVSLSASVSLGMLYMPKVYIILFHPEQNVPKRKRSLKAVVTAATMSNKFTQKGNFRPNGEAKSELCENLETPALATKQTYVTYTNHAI
# EXPERIMENTAL DETAILS: Agonist activity at rat mGlu4 R258A mutant
As a rule, pEC50 stands for the negative log10 of the concentration, concentration in M.

N[C@@H](CCP(=O)(O)C(O)c1ccc(OCC(=O)O)cc1)C(=O)O (some centres not stated) : 5.31

We now examine a further compound.
Please give the measured pEC50 for this compound: N[C@@H](CCP(=O)(O)O)C(=O)O
5.73

* * *

# TGT: Metabotropic glutamate receptor 4 (Rattus norvegicus, UniProt P31423, K74A)
# Sequence (P31423 33-912 K74A limits assumed): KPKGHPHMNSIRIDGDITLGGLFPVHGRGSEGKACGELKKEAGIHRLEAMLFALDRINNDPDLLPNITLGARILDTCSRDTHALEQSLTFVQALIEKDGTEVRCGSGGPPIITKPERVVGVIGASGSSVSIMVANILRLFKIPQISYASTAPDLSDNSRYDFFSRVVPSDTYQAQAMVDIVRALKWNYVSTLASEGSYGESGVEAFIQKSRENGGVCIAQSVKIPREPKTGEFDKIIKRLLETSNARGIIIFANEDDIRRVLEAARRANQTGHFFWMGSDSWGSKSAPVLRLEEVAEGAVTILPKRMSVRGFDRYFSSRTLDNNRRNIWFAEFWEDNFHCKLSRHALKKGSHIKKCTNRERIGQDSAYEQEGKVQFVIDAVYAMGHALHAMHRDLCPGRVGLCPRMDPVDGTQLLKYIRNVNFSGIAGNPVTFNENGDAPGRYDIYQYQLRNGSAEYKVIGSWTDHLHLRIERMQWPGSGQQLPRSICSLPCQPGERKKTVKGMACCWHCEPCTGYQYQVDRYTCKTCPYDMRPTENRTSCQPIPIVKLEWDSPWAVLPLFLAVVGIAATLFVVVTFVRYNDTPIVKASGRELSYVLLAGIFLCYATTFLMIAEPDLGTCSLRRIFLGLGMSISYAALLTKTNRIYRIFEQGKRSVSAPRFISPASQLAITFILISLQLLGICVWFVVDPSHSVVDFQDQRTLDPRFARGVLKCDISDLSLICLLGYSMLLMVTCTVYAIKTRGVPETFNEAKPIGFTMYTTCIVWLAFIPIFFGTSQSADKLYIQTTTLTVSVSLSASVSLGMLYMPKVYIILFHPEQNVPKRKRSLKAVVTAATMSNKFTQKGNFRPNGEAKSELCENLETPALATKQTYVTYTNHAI
# EXPERIMENTAL DETAILS: Agonist activity against rat mGlu4 K74A mutant
# EC50 per entry
Provide only the numeric value, understood in nM.

N[C@@H](CCP(=O)(O)C(O)c1ccc(OCC(=O)O)cc1)C(=O)O (some centres not stated) : 24

// switching to the query compound
What measured EC50 goes with N[C@@H](CCP(=O)(O)O)C(=O)O ?
230

* * *

Property: EC50; scope: individual compounds
# TGT: Metabotropic glutamate receptor 4 (Rattus norvegicus, UniProt P31423, S160D)
# Sequence (P31423 33-912 S160D limits assumed): as the sequence (P31423 33-912 R258A limits assumed) above, with S128D, A226R counted along it
# EXPERIMENTAL DETAILS: Agonist activity against rat mGlu4 S160D mutant
Give the quantity in µM, number only.

N[C@@H](CCP(=O)(O)O)C(=O)O : 12.3

Consider the additional compound presented here.
For the compound N[C@@H](CCP(=O)(O)C(O)c1ccc(OCC(=O)O)cc1)C(=O)O (some centres not stated) , what EC50 is on record?
18.5

* * *

# TGT: UniProtKB P35400
# EXPERIMENTAL DETAILS: Antagonist activity against LSP4-202-induced rat mGlu7 activation transfected in HEK293 cells co-transfected with chimeric Gqi9 assessed as decrease in LSP4-202 potency by measuring LSP4-202 pEC50 incubated for 24 hrs by IP-one HTRF assay
# Assay type: functional, cell-based
Activity calls are given as the source filed them. The rule behind the calls is not given here.
MEASURED PARAMETER: inhibition

O=c1c2ccc(O)cc2oc2c1oc1ccc(I)cc12 : inactive
O=c1c2ccccc2oc2c1oc1ccc(Br)cc12 : inactive
O=c1c2ccccc2oc2c1oc1ccc(Cl)cc12 : inactive

* * *

# TGT: Metabotropic glutamate receptor 7 (Rattus norvegicus, UniProt P35400)
# Sequence (P35400 whole entry): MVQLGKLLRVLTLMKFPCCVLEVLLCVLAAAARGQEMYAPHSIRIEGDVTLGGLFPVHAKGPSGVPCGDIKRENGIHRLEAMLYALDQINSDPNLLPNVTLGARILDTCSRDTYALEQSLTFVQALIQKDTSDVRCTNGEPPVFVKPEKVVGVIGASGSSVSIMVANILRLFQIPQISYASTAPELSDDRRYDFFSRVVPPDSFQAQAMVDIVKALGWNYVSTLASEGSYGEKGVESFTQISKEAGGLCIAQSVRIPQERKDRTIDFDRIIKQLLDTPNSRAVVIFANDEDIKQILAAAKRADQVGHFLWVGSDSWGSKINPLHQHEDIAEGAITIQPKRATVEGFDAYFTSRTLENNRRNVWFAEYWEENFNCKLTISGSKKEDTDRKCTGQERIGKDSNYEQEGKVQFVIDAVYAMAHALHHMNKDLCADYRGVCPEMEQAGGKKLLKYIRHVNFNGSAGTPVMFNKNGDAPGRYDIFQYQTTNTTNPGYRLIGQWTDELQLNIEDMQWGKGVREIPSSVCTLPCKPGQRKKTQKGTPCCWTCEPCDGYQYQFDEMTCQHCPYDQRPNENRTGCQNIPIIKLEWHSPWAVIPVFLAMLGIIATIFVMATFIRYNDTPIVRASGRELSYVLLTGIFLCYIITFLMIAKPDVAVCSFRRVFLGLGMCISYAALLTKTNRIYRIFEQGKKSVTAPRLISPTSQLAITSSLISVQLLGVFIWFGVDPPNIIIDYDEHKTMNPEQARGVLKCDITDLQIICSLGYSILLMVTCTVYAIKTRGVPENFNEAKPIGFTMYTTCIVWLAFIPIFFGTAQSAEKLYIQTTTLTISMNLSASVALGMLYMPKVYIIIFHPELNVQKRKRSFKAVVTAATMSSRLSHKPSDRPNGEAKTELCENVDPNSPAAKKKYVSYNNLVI
# EXPERIMENTAL DETAILS: Inhibition of [3H] -LY341495 binding to rat mGlu7 expressed in CHO cell membrane incubated for 30 mins by liquid scintillation analysis
MEASURED PARAMETER: IC50 (nM)
Numbers only; they are read as nM.

Which measured IC50 belongs to N[C@](CC1c2ccccc2Oc2ccccc21)(C(=O)O)[C@H]1C[C@@H]1C(=O)O , tested on Metabotropic glutamate receptor 7 (Rattus norvegicus, UniProt P35400)?
190

* * *

# EXPERIMENTAL DETAILS: Agonist activity at rat mGlu4 R258Q/D262/R263 mutant
# EC50 values compiled below
The response must be a number in µM with no trailing unit.

N[C@@H](CCP(=O)(O)O)C(=O)O : 11.1

Consider the record given below.
Consider the compound shown here: N[C@@H](CCP(=O)(O)C(O)c1ccc(OCC(=O)O)cc1)C(=O)O (some centres not stated) What is its recorded EC50?
7

* * *

# TGT: Metabotropic glutamate receptor 7 (Rattus norvegicus, UniProt P35400, N74A)
# Sequence (P35400 35-915 N74A limits assumed): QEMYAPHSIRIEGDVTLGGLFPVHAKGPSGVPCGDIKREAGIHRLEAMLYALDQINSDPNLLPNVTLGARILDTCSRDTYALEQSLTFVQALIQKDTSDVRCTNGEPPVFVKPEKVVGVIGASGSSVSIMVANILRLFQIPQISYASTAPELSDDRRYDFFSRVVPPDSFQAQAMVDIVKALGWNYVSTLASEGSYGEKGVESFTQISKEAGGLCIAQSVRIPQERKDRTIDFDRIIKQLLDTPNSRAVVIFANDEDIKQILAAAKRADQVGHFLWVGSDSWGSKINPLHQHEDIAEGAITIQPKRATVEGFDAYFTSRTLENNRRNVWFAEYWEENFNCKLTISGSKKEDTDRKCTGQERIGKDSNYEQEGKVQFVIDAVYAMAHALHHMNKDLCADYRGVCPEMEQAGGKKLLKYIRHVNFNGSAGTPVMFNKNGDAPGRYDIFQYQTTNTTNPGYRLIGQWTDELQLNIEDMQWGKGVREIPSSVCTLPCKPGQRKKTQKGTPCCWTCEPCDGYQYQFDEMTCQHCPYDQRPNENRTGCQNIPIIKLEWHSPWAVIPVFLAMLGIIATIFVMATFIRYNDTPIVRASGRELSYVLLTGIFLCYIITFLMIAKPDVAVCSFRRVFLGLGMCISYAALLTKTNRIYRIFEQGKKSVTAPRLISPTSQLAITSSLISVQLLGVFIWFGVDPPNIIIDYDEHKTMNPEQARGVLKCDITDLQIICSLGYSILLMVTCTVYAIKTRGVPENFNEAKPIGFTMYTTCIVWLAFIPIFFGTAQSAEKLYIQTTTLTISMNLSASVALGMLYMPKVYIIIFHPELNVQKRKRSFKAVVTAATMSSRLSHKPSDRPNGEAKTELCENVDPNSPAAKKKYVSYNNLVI
# EXPERIMENTAL DETAILS: Agonist activity at rat mGlu7 N74A mutant
MEASURED PARAMETER: EC50 (µM)
Reply with just the number (in µM).

What measured EC50 goes with N[C@@H](CCP(=O)(O)C(O)c1ccc(OCC(=O)O)cc1)C(=O)O (some centres not stated) ?
32

* * *

# EXPERIMENTAL DETAILS: Antagonist activity against LSP4-202-induced rat mGlu7 […] mutant assessed as decrease in LSP4-202 potency by measuring LSP4-202 pEC50 at 100 uM
pEC50: −log10 of the molar value.
MEASURED PARAMETER: pEC50

O=c1c(Oc2ccc(I)cc2)coc2cc(O)ccc12 : 4.96

1: O=C(COc1ccc(Br)cc1F)c1ccc(O)c(F)c1
2: O=C(COc1ccc(Br)cc1F)c1ccc(O)c(O)c1
For the pair 1 and 2 , which entry has the numerically smaller recorded pEC50? Respond with the label that goes with your answer.
1
(1: 4.22, 2: 4.57)

* * *

# TGT: Metabotropic glutamate receptor 4 (Rattus norvegicus)
# EXPERIMENTAL DETAILS: Agonist activity against wild type rat mGlu4
MEASURED PARAMETER: EC50 (nM)
Entry rule: numbers only, all in nM.

N[C@@H](CCP(=O)(O)O)C(=O)O : 343

Next item in the queue.
// returns reported EC50 for input N[C@@H](CCP(=O)(O)C(O)c1ccc(OCC(=O)O)cc1)C(=O)O (some centres not stated)
833

* * *

# TGT: Metabotropic glutamate receptor 7 (Rattus norvegicus, UniProt P35400)
# EXPERIMENTAL DETAILS: Antagonist activity against rat mGlu7 activation transfected in HEK293 cells co-transfected with chimeric Gqi9 incubated for 24 hrs in presence of LSP4-2022 by IP-one HTRF assay
# Format: functional, cell-based
# MEASUREMENT SETUP: read-out: pIC50 (converted)
MEASURED PARAMETER: IC50 (nM)

O=C(COc1ccc(Br)cc1F)c1ccc(O)c(F)c1 : 851

A: O=C(COc1ccc(Br)cc1F)c1ccc(O)c(O)c1
B: O=C(COc1ccc(Br)cc1F)c1cc(F)c(O)c(F)c1
C: O=C(COc1ccc(Br)cc1F)c1ccc(O)cc1
I would appreciate it if you could sort these 3 compounds by IC50, starting from the smallest number. Form entry: ranked labels (order as requested).
B, C, A

* * *

# TGT: Metabotropic glutamate receptor 7 (Rattus norvegicus, UniProt P35400, K60A)
# Sequence (P35400 35-915 K60A limits assumed): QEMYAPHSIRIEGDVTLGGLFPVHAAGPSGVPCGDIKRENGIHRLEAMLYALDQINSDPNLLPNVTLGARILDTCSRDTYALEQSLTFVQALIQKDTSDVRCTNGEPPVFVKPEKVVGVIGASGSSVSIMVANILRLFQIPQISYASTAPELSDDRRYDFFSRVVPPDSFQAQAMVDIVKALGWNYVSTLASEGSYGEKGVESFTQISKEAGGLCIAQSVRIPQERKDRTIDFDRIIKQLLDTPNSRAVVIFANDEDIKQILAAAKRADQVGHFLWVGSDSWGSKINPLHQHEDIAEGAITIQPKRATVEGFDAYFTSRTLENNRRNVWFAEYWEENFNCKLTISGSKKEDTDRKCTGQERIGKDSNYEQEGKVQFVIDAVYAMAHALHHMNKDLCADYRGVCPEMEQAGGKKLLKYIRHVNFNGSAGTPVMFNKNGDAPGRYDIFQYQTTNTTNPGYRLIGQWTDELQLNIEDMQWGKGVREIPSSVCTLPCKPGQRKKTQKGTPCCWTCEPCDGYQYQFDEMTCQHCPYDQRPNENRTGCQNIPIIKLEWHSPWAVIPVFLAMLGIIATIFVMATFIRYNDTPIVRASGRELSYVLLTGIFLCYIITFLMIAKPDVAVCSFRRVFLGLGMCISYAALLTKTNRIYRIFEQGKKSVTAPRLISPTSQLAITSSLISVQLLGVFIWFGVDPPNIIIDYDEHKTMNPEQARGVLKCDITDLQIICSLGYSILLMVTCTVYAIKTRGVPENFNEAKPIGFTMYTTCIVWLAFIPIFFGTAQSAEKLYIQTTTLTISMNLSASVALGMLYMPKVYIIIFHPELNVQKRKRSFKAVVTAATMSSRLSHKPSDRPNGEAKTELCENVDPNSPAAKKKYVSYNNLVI
# EXPERIMENTAL DETAILS: Agonist activity at rat mGlu7 K60A mutant
MEASURED PARAMETER: EC50 (µM)
Write the value in µM as a bare number.

N[C@@H](CCP(=O)(O)C(O)c1ccc(OCC(=O)O)cc1)C(=O)O (some centres not stated) : 178

Consider the record given below.
Can you share its EC50? I mean this compound: N[C@@H](CCP(=O)(O)O)C(=O)O
1980

* * *

# TGT: UniProt P35400
# EXPERIMENTAL DETAILS: Antagonist activity against LSP4-202-induced rat mGlu7 activation transfected in HEK293 cells co-transfected with chimeric Gqi9 assessed as decrease in LSP4-202 potency by measuring LSP4-202 maximum efficacy at 30 to 100 uM incubated for 24 hrs by IP-one HTRF assay relative to control
# Assay type: functional, cell-based
# MEASUREMENT SETUP: filed as antagonist, dose 30-100 µM
MEASURED PARAMETER: Emax (%)

COc1ccc(OCC(=O)c2ccc(O)cc2)cc1 : 97.6
O=C(COc1ccc(Cl)cc1Cl)c1ccc(O)cc1 : 92.3
Cc1ccc(OCC(=O)c2ccc(O)cc2)cc1 : 95.4
O=C(COc1ccc(Br)cc1Cl)c1ccc(O)cc1 : 93.3
COc1ccc(C(=O)COc2ccc(I)cc2)cc1 : 93.6
O=C(COc1ccc(C(F)(F)F)cc1)c1ccc(O)cc1 : 101
O=C(COc1ccc(Cl)cc1)c1ccc(O)cc1 : 98.5
O=C(COc1ccc(Br)cc1)c1ccc(O)cc1 : 99.2

* * *

# TGT: Metabotropic glutamate receptor 7 (Rattus norvegicus, UniProt P35400, Q258A)
# EXPERIMENTAL DETAILS: Agonist activity at rat mGlu7 Q258A mutant
MEASURED PARAMETER: EC50 (µM)
Entry rule: numbers only, all in µM.

I am curious: what EC50 value has been reported for N[C@@H](CCP(=O)(O)C(O)c1ccc(OCC(=O)O)cc1)C(=O)O (stereo partly specified) ?
18.2

* * *

# EXPERIMENTAL DETAILS: Antagonist activity against LSP4-202-induced rat mGlu7 […] mutant assessed as decrease in LSP4-202 potency by measuring LSP4-202 pEC50 at 10 uM
pEC50: −log10 of the molar value.
MEASURED PARAMETER: pEC50

O=c1c(Oc2ccc(I)cc2)coc2cc(O)ccc12 : 4.60

A: O=C(COc1ccc(Br)cc1F)c1ccc(O)c(F)c1
B: O=C(COc1ccc(Br)cc1F)c1ccc(O)c(O)c1
Recorded pEC50 values differ for A and B ; which one is higher? Write down the label attached to your selection.
A
(A: 5.00, B: 4.42)
